Target: HIV-1 envelope glycoprotein (gp120) of virus 7141 (HIV-1)
Assay: cell-based or functional assay
Entries annotated with measured Neutralization IC50
I only need the number, in µg/mL, no unit after it.

Solved entries:
INSERT INTO measurements (binder, unit_string, measurement) VALUES
  ('3.1.17-1 (antibody, human IgG1, kappa, V domains shown) VH: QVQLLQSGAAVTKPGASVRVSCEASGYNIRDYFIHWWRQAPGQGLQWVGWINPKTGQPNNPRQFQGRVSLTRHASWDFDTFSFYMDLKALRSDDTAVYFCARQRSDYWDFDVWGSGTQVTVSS VL: DIQMTQSPSSLSARVGDTATITCQANGYLNWYQQRRGKAPKLLIYDGSKLERGVPARFSGRRWGQEYHLTINNLQPEDVATYFCQVYEFFGPGTRLDLKR', 'µg/mL', 25.5),
  ('1.1.104-1 (antibody, human IgG1, kappa, V domains shown) VH: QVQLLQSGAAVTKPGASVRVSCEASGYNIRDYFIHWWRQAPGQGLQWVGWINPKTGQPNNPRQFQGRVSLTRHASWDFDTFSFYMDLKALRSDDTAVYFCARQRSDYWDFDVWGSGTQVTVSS VL: DIQMTQSPSSLSASVGDTATITCQANGYLNWYQQRRGKAPKLLIYDGSKLERGVPSRFSGRRWGQEYTLTINNLQPEDIATYFCQVYEFFGPGTRLDLKR', 'µg/mL', 5.13);

Okay, next one:
Prompt: What value of Neutralization IC50 has been reported for the following binder? 2.3.15-1 (antibody, human IgG1, kappa, V domains shown) VH: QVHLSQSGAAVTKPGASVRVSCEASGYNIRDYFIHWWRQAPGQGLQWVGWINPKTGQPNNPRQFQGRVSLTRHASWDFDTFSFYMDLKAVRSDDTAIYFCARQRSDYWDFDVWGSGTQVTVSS VL: DIQMTQSPSSLSARVGDTATITCQANGYLNWYQQRRGKAPKLLIYDGSKLERGVPARFSGRRWGQEYTLTINNLQPEDVATYFCQVYEFFGPGTRLDLKR
Completion: 5.93

The reported numbers originate from patent US20220089698A1.
